experiment: Rat in vivo PK (PK/PBL cassette); details: plasma
Readout name: AUC (µg·h/mL)
Reply with just the number (in µg·h/mL).

Cn1cc(-c2ccc(Cc3cc(C(=O)N[C@H]4CCCC[C@@H]4O)nn3C3CCCC3)cc2)cn1 [17k]: 0.0744

Moving on to the next molecule.
Requested read-out: AUC. Entry: Cn1cc(-c2ccc(Cc3cc(C(=O)N[C@H]4CCOC[C@@H]4O)nn3C3CCCC3)cc2)cn1 [17g]
0.16

* * *

biological target: rat muscarinic receptor subtype 1 (M1) (Rattus norvegicus, UniProt P08482); construct: expressed in transfected cells; test: Calcium mobilization assay in rM1-CHO cells, PAM activity with EC20 acetylcholine; assay type: cell-based; details: read-out: rM1 pEC50 ± SEM (converted)
Sequence (P08482 whole entry): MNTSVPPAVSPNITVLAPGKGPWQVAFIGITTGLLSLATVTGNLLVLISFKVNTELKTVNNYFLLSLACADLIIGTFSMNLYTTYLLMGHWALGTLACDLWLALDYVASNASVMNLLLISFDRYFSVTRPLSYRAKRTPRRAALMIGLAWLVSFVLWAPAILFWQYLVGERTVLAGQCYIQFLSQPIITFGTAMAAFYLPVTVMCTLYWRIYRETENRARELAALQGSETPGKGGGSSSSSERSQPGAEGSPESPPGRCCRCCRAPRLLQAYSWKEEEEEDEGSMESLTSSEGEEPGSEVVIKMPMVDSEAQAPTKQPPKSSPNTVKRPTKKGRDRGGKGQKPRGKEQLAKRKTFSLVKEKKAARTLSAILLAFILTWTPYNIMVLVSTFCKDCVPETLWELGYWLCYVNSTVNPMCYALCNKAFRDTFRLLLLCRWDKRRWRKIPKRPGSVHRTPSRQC
Readout name: EC50 (µM)
Reply with just the number (in µM).

Observe how each entry below is paired with its result.
Cn1cc(-c2ccc(Cc3cc(C(=O)N[C@H]4CCOC[C@@H]4O)nn3-c3ccccc3)cc2)cn1 [17b]: 1.2
Cn1cc(-c2ccc(Cc3cc(C(=O)N[C@H]4CCOC[C@@H]4O)nn3C3CCCC3)cc2)cn1 [17g]: 0.347
CNC(=O)c1ccc(Cc2cc(C(=O)N[C@H]3CCOC[C@@H]3O)nn2C2CCCC2)cc1: 0.794
Cn1cc(-c2ccc(Cc3cc(C(=O)N[C@H]4CCC[C@@H]4O)nn3C3CCCC3)cc2)cn1 [17m]: 1.58
Cn1cc(-c2ccc(Cc3cc(C(=O)N[C@H]4CCCCC[C@@H]4O)nn3C3CCCC3)cc2)cn1 [17l]: 0.724

Which EC50 is reported with rat muscarinic receptor subtype 1 (M1) (Rattus norvegicus, UniProt P08482) for this entry: Cn1cc(-c2ccc(Cc3cc(C(=O)N[C@H]4CCCC[C@@H]4O)nn3C3CCCC3)cc2)cn1 [17k] ?
0.49

Further, for Cn1cc(-c2ccc(Cc3cc(C(=O)N[C@H]4CCOC[C@@H]4O)nn3C3CCCCC3)cc2)cn1 [17h] ?
1.48

Further, for Cn1cc(-c2ccc(Cc3cc(C(=O)NC4CC5(COC5)C4)nn3C3CCCC3)cc2)cn1 [17p] ?
1.91

Further, for Cn1cc(-c2ccc(Cc3cc(C(=O)N[C@H]4CCCC[C@@H]4O)nn3-c3ccccc3)cc2)cn1 [17a] ?
2.51

Further, for Cn1cc(-c2ccc(Cc3cc(C(=O)N[C@@H]4CCOC[C@H]4F)nn3C3CCCC3)cc2)cn1 [17n] ?
4.17

Further, for Cn1cc(-c2ccc(Cc3cc(C(=O)N[C@H]4CCOC[C@@H]4O)nn3C3CCOC3)cc2)cn1 (stereo partly shown) [17j] ?
0.562

Further, for Cn1cc(-c2ccc(Cc3cc(C(=O)N[C@H]4CCCCC[C@@H]4O)nn3-c3ccccc3)cc2)cn1 [17e] ?
3.47

* * *

target: rat muscarinic receptor subtype 1 (M1) (Rattus norvegicus, UniProt P08482); construct: expressed in transfected cells; assay: Calcium mobilization assay in rM1-CHO cells, PAM activity with EC20 acetylcholine; type: cell-based
Here the recorded rM1 %ACh Max ± SEM is given for each entry.
Reply with just the number (in %ACh Max).

Observe how each entry below is paired with its result.
Cn1cc(-c2ccc(Cc3cc(C(=O)N[C@H]4CC[C@@H]4O)nn3-c3ccccc3)cc2)cn1 [17d]: 51
Cn1cc(-c2ccc(Cc3cc(C(=O)N[C@H]4CCCCC[C@@H]4O)nn3C3CCCC3)cc2)cn1 [17l]: 81
Cn1cc(-c2ccc(Cc3cc(C(=O)NC4CC5(COC5)C4)nn3C3CCCC3)cc2)cn1 [17p]: 76
Cn1cc(-c2ccc(Cc3cc(C(=O)N[C@H]4CCOC[C@@H]4O)nn3-c3ccccc3)cc2)cn1 [17b]: 84
Cn1cc(-c2ccc(Cc3cc(C(=O)N[C@H]4CCC[C@@H]4O)nn3-c3ccccc3)cc2)cn1 [17c]: 69

Requested read-out: rM1 %ACh Max ± SEM. Entry: Cn1cc(-c2ccc(Cc3cc(C(=O)N[C@@H]4CCOC[C@H]4F)nn3C3CCCC3)cc2)cn1 [17n]
72

Further, for Cn1cc(-c2ccc(Cc3cc(C(=O)N[C@H]4CCOC[C@@H]4O)nn3C3CCOC3)cc2)cn1 (stereo partly drawn) [17j] ?
75

Further, for Cn1cc(-c2ccc(Cc3cc(C(=O)N[C@H]4CCC[C@@H]4O)nn3C3CCCC3)cc2)cn1 [17m] ?
73

* * *

experiment: Rat in vivo PK (PK/PBL cassette); details: plasma clearance, read-out: CLp
Here the recorded clearance is given for each entry.
Reply with just the number (in mL/min/kg).

Cn1cc(-c2ccc(Cc3cc(C(=O)N[C@H]4CCCC[C@@H]4O)nn3C3CCCC3)cc2)cn1 [17k]: 56

Moving on to the next molecule.
Requested read-out: clearance. Entry: Cn1cc(-c2ccc(Cc3cc(C(=O)N[C@H]4CCOC[C@@H]4O)nn3C3CCCC3)cc2)cn1 [17g]
20.8

* * *

Here the recorded EC50 is given for each entry.
molecular target: human muscarinic receptor subtype 1 (M1) (Homo sapiens, UniProt P11229); assay: Calcium mobilization assay in hM1-CHO cells, PAM activity with EC20 acetylcholine; type: cell-based; conditions: read-out: hM1 pEC50 ± SEM (converted)
Sequence (P11229 whole entry): as the sequence (P08482 whole entry) above, with V5A, S254T, S309P, K320R, G337A, V413I counted along it

Observe how each entry below is paired with its result.
CNC(=O)c1ccc(Cc2cc(C(=O)N[C@H]3CCOC[C@@H]3O)nn2C2CCCC2)cc1 [compound 21]: 1260 nM
Cn1cc(-c2ccc(Cc3cc(C(=O)N[C@H]4CCCC[C@@H]4O)nn3C3CCCC3)cc2)cn1 [17k]: 589 nM

Moving on to the next molecule.
Requested read-out: EC50. Entry: Cn1cc(-c2ccc(Cc3cc(C(=O)NC4CC(F)C4)nn3C3CCCC3)cc2)cn1 (stereo not shown) [17o]
> 10000 nM

* * *

assay: Rat in vivo PK (PK/PBL cassette); conditions: plasma
Here the recorded half-life is given for each entry.
Reply with just the number (in min).

Cn1cc(-c2ccc(Cc3cc(C(=O)N[C@H]4CCCC[C@@H]4O)nn3C3CCCC3)cc2)cn1 [17k]: 37.8

Requested read-out: half-life. Entry: Cn1cc(-c2ccc(Cc3cc(C(=O)N[C@H]4CCOC[C@@H]4O)nn3C3CCCC3)cc2)cn1 [17g]
72.6

* * *

assay: Rat in vivo PK (PK/PBL cassette); settings: plasma
Readout name: MRT (min)
Reply with just the number (in min).

Cn1cc(-c2ccc(Cc3cc(C(=O)N[C@H]4CCCC[C@@H]4O)nn3C3CCCC3)cc2)cn1 [17k]: 39

Requested read-out: MRT. Entry: Cn1cc(-c2ccc(Cc3cc(C(=O)N[C@H]4CCOC[C@@H]4O)nn3C3CCCC3)cc2)cn1 [17g]
76.8

* * *

Here the recorded solubility is given for each entry.
assay: Aqueous solubility; type: physicochemical; conditions: aqueous solution, aqueous buffer, pH 2.2, read-out: Solubility pH = 2.2
Reply with just the number (in µM).

Cn1cc(-c2ccc(Cc3cc(C(=O)N[C@H]4CCOC[C@@H]4O)nn3C3CCCC3)cc2)cn1 [17g]: 84.6

Requested read-out: solubility. Entry: Cn1cc(-c2ccc(Cc3cc(C(=O)N[C@H]4CCCC[C@@H]4O)nn3C3CCCC3)cc2)cn1 [17k]
10.8

* * *

target: UniProt P11229; assay: Calcium mobilization assay in hM1-CHO cells, PAM activity with EC20 acetylcholine; type: cell-based
Here the recorded hM1 %ACh Max ± SEM is given for each entry.

Requested read-out: hM1 %ACh Max ± SEM. Entry: Cn1cc(-c2ccc(Cc3cc(C(=O)N[C@H]4CCC[C@@H]4O)nn3-c3ccccc3)cc2)cn1 [17c]
58 ± 3.0 %ACh Max

Further, for Cn1cc(-c2ccc(Cc3cc(C(=O)N[C@H]4CCC[C@@H]4O)nn3C3CCCC3)cc2)cn1 [17m] ?
76 ± 10 %ACh Max

Further, for Cn1cc(-c2ccc(Cc3cc(C(=O)N[C@H]4CCOC[C@@H]4O)nn3C3CCOC3)cc2)cn1 (some centres unmarked) [17j] ?
71 ± 4.1 %ACh Max

Further, for Cn1cc(-c2ccc(Cc3cc(C(=O)N[C@H]4CCOC[C@@H]4O)nn3C3CCCC3)cc2)cn1 [17g] ?
82 ± 3.4 %ACh Max

Further, for Cn1cc(-c2ccc(Cc3cc(C(=O)N[C@H]4CCOC[C@@H]4O)nn3-c3ccccc3)cc2)cn1 [17b] ?
74 ± 0.6 %ACh Max

Further, for Cn1cc(-c2ccc(Cc3cc(C(=O)N[C@H]4CCCC[C@@H]4O)nn3C3CCCC3)cc2)cn1 [17k] ?
82 ± 4.4 %ACh Max

Further, for Cn1cc(-c2ccc(Cc3cc(C(=O)NC4CC5(COC5)C4)nn3C3CCCC3)cc2)cn1 [17p] ?
78 ± 8.8 %ACh Max

Further, for Cn1cc(-c2ccc(Cc3cc(C(=O)NC4CC(F)C4)nn3C3CCCC3)cc2)cn1 (centres unmarked) [17o] ?
46 ± 1.1 %ACh Max
